Test system: Human MM cell U266
Assay: [3H]-thymidine uptake cell proliferation assay, U266
Format: cell-based
Details: Homo sapiens, U-266; U266, 48 h, [3H]-thymidine uptake; read-out: inhibition of DNA synthesis in MM cells, IC50
READOUT: IC50 (nM)
# value in nM; strip the unit string

// CN(C)c1ccc(C(NC(=O)Cc2ccccc2)NC(=O)Cc2ccccc2)cc1 [Compound 1] : IC50 value = 1250

###

Below, each entry is listed alongside its reported log10 of Ki.
Biological target: UniProt:P34972
Test: [3H]CP-55,940 radioligand competition binding, CB2
Parameters: host or cells: cell membrane preparations
Settings: [3H]CP-55,940 displacement; read-out: Ki (CB2)
// do not treat as linear: log10 of Ki, unit nM

// "O=C(Cc1ccccc1)NC(NC(=O)Cc1ccccc1)c1ccc(Cl)cc1" : log10 of Ki value = 3.49

// "CCOc1ccc(C(NC(=O)Cc2ccccc2)NC(=O)Cc2ccccc2)cc1" : log10 of Ki value = 3.18

// "COc1ccc(C(NC(=O)Cc2ccc(Cl)cc2)NC(=O)Cc2ccc(Cl)cc2)cc1" : log10 of Ki value = 2.49

// "CCN(CC)c1ccc(CN(c2ccc(Cl)cc2)S(=O)(=O)c2ccc(C)cc2)cc1" : log10 of Ki value = 1.57

// "CCCCCCCC(=O)N(Cc1ccc(N(CC)CC)cc1)C12CC3CC(CC(C3)C1)C2" : log10 of Ki value = 2.80

---
// "CCCCCC(NC(=O)Cc1ccccc1)NC(=O)Cc1ccccc1" : log10 of Ki value = 4.26

###

Molecular target: CB2 receptor (Homo sapiens, UniProt P34972)
Sequence (P34972 whole entry): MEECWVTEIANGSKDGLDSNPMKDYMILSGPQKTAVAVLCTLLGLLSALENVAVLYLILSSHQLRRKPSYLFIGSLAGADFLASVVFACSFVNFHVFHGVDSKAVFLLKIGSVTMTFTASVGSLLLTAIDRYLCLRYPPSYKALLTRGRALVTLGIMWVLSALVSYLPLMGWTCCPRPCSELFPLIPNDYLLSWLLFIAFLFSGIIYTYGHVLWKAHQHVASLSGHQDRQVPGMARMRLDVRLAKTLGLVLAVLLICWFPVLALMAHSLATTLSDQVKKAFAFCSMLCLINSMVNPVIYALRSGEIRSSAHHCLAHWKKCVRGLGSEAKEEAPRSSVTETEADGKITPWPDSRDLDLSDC
Test: [3H]CP-55,940 radioligand competition binding, CB2
Set-up: host or cells: cell membrane preparations
Conditions: [3H]CP-55,940 displacement; read-out: Ki (CB2)
Rule: Ki below 200 nM gives yes, anything at or above gives no.

Prompt: Confirm or reject: Ki of "CCCCCCCN(Cc1ccc(N(CC)CC)cc1)S(=O)(=O)CCCC" lies strictly below 200 nM
Response: no

Next:
Prompt: Confirm or reject: Ki of "CCN(CC)c1ccc(CN(C(=O)C2CCCCC2)c2ccc(Cl)cc2)cc1" lies strictly below 200 nM
Response: yes

###

Target: CB1 receptor (Homo sapiens)
Construct: host or cells: cell membrane preparations
Sequence (P21554 whole entry): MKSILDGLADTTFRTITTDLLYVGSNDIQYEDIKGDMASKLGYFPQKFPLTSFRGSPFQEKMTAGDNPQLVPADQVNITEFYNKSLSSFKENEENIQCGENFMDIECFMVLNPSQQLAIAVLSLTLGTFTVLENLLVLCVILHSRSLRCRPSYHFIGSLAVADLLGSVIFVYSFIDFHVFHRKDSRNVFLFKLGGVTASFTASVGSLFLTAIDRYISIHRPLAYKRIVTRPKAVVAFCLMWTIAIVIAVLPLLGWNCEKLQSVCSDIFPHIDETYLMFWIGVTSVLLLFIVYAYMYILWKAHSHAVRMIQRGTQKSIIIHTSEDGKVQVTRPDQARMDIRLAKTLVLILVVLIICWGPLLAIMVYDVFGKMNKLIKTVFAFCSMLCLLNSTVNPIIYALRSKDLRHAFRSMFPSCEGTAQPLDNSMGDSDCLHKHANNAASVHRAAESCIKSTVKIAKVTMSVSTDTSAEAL
Test: [3H]CP-55,940 radioligand competition binding, CB1
Conditions: [3H]CP-55,940 displacement; read-out: Ki (CB1)
READOUT: Ki (nM)
# value in nM; strip the unit string

// CCN(CC)c1ccc(CN(c2ccc(C)cc2)S(=O)(=O)c2ccc(Cl)cc2)cc1 [Compound 92] : Ki value = 412

// CCN(CC)c1ccc(CN(C(=O)C2CCCCC2)c2ccc(C)cc2)cc1 [Compound 99] : Ki value = 202

// CCN(CC)c1ccc(CN(c2ccc(C)cc2)S(=O)(=O)c2cccc(C)c2)cc1 [Compound 95] : Ki value = 218

// CCN(CC)c1ccc(CN(c2ccc(Cl)cc2)S(=O)(=O)c2ccccc2)cc1 [Compound 81] : Ki value = 1770

---
// CCN(CC)c1ccc(CN(c2ccc(Cl)cc2)S(=O)(=O)c2cccc(C)c2)cc1 [Compound 86] : Ki value = 866

###

Target: CB2 receptor (Homo sapiens, UniProt P34972)
Assay: [3H]CP-55,940 radioligand competition binding, CB2
Design: host or cells: cell membrane preparations
Below, each entry is listed alongside its reported pKi.
Lab note: report pKi as minus log10 of the concentration in molar units, number only.

# annotated cases, reported pKi shown
// CCN(CC)c1ccc(CN(C23CC4CC(CC(C4)C2)C3)S(=O)(=O)c2ccc(F)cc2)cc1 [Compound 57] : pKi value = 7.60

// CCN(CC)c1ccc(CN(C(=O)C2CCCCC2)C23CC4CC(CC(C4)C2)C3)cc1 [Compound 63] : pKi value = 7.46

// CCN(CC)c1ccc(CN(C23CC4CC(CC(C4)C2)C3)S(=O)(=O)c2ccccc2)cc1 [Compound 56] : pKi value = 7.08

// CCN(CC)c1ccc(CN(C23CC4CC(CC(C4)C2)C3)S(=O)(=O)c2cccc(C)c2)cc1 [Compound 61] : pKi value = 7.72

---
// CCN(CC)c1ccc(CN(C23CC4CC(CC(C4)C2)C3)S(=O)(=O)c2ccc(C(C)C)cc2)cc1 [Compound 62] : pKi value = 6.34
